Every entry's value here was drawn from ChEMBL document CHEMBL3351523.

Attribute: CC50 at 96 h
Test: Cytotoxicity against mock-infected human MT4 cells after 96 hrs by MTT assay
Type: cell-based

Below, each entry is followed by its recorded CC50 at 96 h result.
INSERT INTO results (structure_smiles, readout_type, result) VALUES
  ('COc1ccc2c(c1)nnn1c3cc(Cl)c(Cl)cc3nc21', 'CC50 at 96 h', '> 100 µM'),
  ('Clc1ccc(Cc2nc3cc(Cl)c(Cl)cc3[nH]2)cc1', 'CC50 at 96 h', '37 µM');

// next entry
Query block: Any idea what CC50 at 96 h was measured for Nc1nc2c(ncn2COCCO)c(=O)[nH]1 ?
Result block: > 100 µM

----------
Assay: Selectivity index, ratio of CC50 for african green monkey Vero 76 cells to EC50 for Coxsackievirus B5
Format: toxicity, cell-based
Conditions: read-out: Ratio CC50/EC50
READOUT TYPE: selectivity ratio
Please give only the number in your answer, with no unit.

INSERT INTO assay_data (structure_smiles, number) VALUES
  ('Oc1ccc(-c2nc3cc(C(F)(F)F)ccc3n2C[C@@H]2CCCN3CCCC[C@H]23)cc1', 3);

Pending compound:
Query block: Quick one: selectivity ratio for Clc1ccc2nc(-c3ccccc3)n([C@H]3CCCN4CCCC[C@H]34)c2c1 ?
Result block: 6.43

----------
Experiment: Cytotoxicity against mock-infected human MT4 cells after 96 hrs by MTT assay
Format: cell-based
The entries below are paired with their reported CC50 at 96 h.
# value in µM; strip the unit string

INSERT INTO assay_data (structure_smiles, readout_type, number) VALUES
  ('Oc1ccc(-c2nc3cc(C(F)(F)F)ccc3n2C[C@@H]2CCCN3CCCC[C@H]23)cc1', 'CC50 at 96 h', 21),
  ('COc1ccc(-c2nc3cc(C(F)(F)F)ccc3n2C[C@H]2CCCN3CCCC[C@H]23)cc1', 'CC50 at 96 h', 42);

Let us examine a further case.
Query block: Dear colleague, I am looking for the recorded CC50 at 96 h of the following molecule: FC(F)(F)c1ccc2c(c1)nc(Cc1ccc(Cl)cc1)n2C[C@@H]1CCCN2CCCC[C@H]12
Result block: 6

----------
Test system: Respiratory syncytial virus
Assay: Antiviral activity against Respiratory syncytial virus infected in african green monkey Vero 76 cells assessed as reduction in plaque number after 5 days by plaque reduction assay
Type: functional, organism-based
Conditions: human respiratory syncytial virus, 120 h
The following molecules are listed with their measured EC50 values.

INSERT INTO results (molecule, result) VALUES
  ('FC(F)(F)c1ccc2c(c1)nc(CC1CCCC1)n2C[C@@H]1CCCN2CCCC[C@H]12', '> 100 µM'),
  ('Clc1ccc(Cc2nc3cc(Cl)c(Cl)cc3n2C[C@@H]2CCCN3CCCC[C@H]23)cc1', '> 100 µM');

Query block: Value lookup for EC50; key = c1ccc2[nH]c(C[C@H]3CCCN4CCCC[C@H]34)nc2c1
Result block: > 100 µM

Query block: Tell me the measured EC50 of Oc1ccc(-c2nc3cc(C(F)(F)F)ccc3n2C[C@@H]2CCCN3CCCC[C@H]23)cc1 , please.
Result block: > 100 µM

Query block: Entry COc1ccc(Cc2nc3cc(Cl)c(Cl)cc3[nH]2)cc1 has what EC50?
Result block: 5 µM

Query block: Data request, read-out EC50, for FC(F)(F)c1ccc2c(c1)nc(Cc1ccc(Br)cc1)n2C[C@@H]1CCCN2CCCC[C@H]12
Result block: 25 µM

----------
Experiment: Cytotoxicity against mock-infected human MT4 cells after 96 hrs by MTT assay
Format: cell-based
CC50 at 96 h by entry:

Some solved entries appear below for comparison.
INSERT INTO results (molecule, readout_type, result) VALUES
  ('CCCCn1c(Cc2ccc(Cl)c(Cl)c2)nc2cc(C(F)(F)F)ccc21', 'CC50 at 96 h', '> 100 µM'),
  ('FC(F)(F)c1ccc2c(c1)nc(-c1ccccc1)n2C[C@@H]1CCCN2CCCC[C@H]12', 'CC50 at 96 h', '46 µM'),
  ('CC(CC(=O)O)n1c(-c2ccccc2)nc2ccccc21 (stereo unspecified)', 'CC50 at 96 h', '> 100 µM');

Query block: Field request: CC50 at 96 h | item: COc1ccc(-c2nc3cc(C(F)(F)F)ccc3n2CCN(C)C)cc1
Result block: > 100 µM

Query block: Request the reported CC50 at 96 h associated with CCC/C=C(\CC)c1nc2ccccc2[nH]1
Result block: 61 µM

Query block: Look at this molecule and give its reported CC50 at 96 h. FC(F)(F)c1ccc2[nH]c(C3CCCCO3)nc2c1 (stereo unspecified)
Result block: 97 µM

----------
Entries and their measured selectivity ratio follow.
Test: Selectivity index, ratio of CC50 for african green monkey Vero 76 cells to EC50 for Respiratory syncytial virus
Type: toxicity, cell-based
Conditions: read-out: Ratio CC50/EC50
Please give only the number in your answer, with no unit.

Reference set, count: 5
INSERT INTO assay_data (molecule, number) VALUES
  ('c1ccc(Cn2c(-c3ccccc3)nc3ccccc32)cc1', 3.48),
  ('FC(F)(F)c1ccc2c(c1)nc(C(F)(F)F)n2C[C@@H]1CCCN2CCCC[C@H]12', 4.09),
  ('Clc1ccc2nc(-c3ccccc3)n([C@H]3CCCN4CCCC[C@H]34)c2c1', 2),
  ('O=c1cnn([C@@H]2O[C@H](CO)[C@@H](O)[C@H]2O)c(=O)[nH]1 [6-AZAURIDINE]', 16.7),
  ('Nc1ccc(Cc2nc3cc(Cl)c(Cl)cc3[nH]2)cc1', 4);

Query block: Please report the recorded selectivity ratio for c1ccc2c(c1)Cn1c(nc3ccccc31)-c1ccccc1-2 .
Result block: 8.89

Query block: Please give the measured selectivity ratio for this molecule: COc1c(C)c2c(c(O)c1C/C=C(\C)CCC(=O)O)C(=O)OC2 [MYCOPHENOLIC ACID]
Result block: 33.3

----------
Assay: Cytotoxicity against mock-infected human MT4 cells after 96 hrs by MTT assay
Assay type: cell-based
Quick reference for CC50 at 96 h among some molecules
Respond with the bare value in µM.

Query block: Quick check: CC50 at 96 h of Nc1ccc(Cc2nc3cc(Cl)c(Cl)cc3[nH]2)cc1 ?
Result block: 71

Query block: Name the reported CC50 at 96 h value associated with the molecule COc1ccc(Cc2nc3cc(Cl)c(Cl)cc3[nH]2)cc1
Result block: 29

Query block: Which measured CC50 at 96 h value corresponds to Clc1ccc2nc(-c3ccccc3)n([C@H]3CCCN4CCCC[C@H]34)c2c1 ?
Result block: 56

Query block: Dear colleague, I am looking for the recorded CC50 at 96 h of the following molecule: Clc1cc2nc(C3CCCCO3)[nH]c2cc1Cl (configuration not stated)
Result block: 6

----------
Assay: Cytotoxicity against mock-infected human MT4 cells after 96 hrs by MTT assay
Format: cell-based
# strict inequality: CC50 at 96 h < 50 µM yields MET, everything else yields NOT MET

Worked examples, 2 compounds total:
INSERT INTO assay_data (compound, cat) VALUES
  ('O=C1Nc2ccc(Cl)cc2[C@@](C#CC2CC2)(C(F)(F)F)O1 [EFAVIRENZ]', 'MET'),
  ('Clc1cc2nc(Cc3ccc(Br)cc3)[nH]c2cc1Cl', 'NOT MET');

Query block: Please determine if CCc1nc2ccccc2[nH]1 is below 50 µM in terms of CC50 at 96 h.
Result block: NOT MET

Query block: Problem: For the compound CC(=O)Nc1ccc(Cc2nc3cc(Cl)c(Cl)cc3[nH]2)cc1 , is CC50 at 96 h under 50 µM?
Result block: NOT MET

Query block: Determine whether this compound shows CC50 at 96 h lower than 50 µM (ties excluded): Fc1cccc(F)c1-c1nc2cc(C(F)(F)F)ccc2n1C[C@@H]1CCCN2CCCC[C@H]12
Result block: NOT MET

----------
As shown below, each of these compounds has a reported CC50 at 96 h value.
Experiment: Cytotoxicity against mock-infected human MT4 cells after 96 hrs by MTT assay
Type: cell-based
Number only, in µM; omit the unit.

// worked examples, CC50 at 96 h included
INSERT INTO assay_data (structure_smiles, measurement_units, number) VALUES
  ('FC(F)(F)c1ccc2c(c1)nc(Cc1ccc(Br)cc1)n2C[C@@H]1CCCN2CCCC[C@H]12', 'µM', 13),
  ('CCN(CC)CCCn1c(Cc2ccc(Cl)c(Cl)c2)nc2cc(C(F)(F)F)ccc21', 'µM', 40),
  ('c1ccc2c(c1)Cn1c(nc3ccccc31)-c1ccccc1-2', 'µM', 44);

Query block: Endpoint output: CC50 at 96 h of O=C1c2ccccc2-n2c(nc3cccnc32)CN1C[C@@H]1CCCN2CCCC[C@H]12 . Value?
Result block: 31

Query block: Returns the measured CC50 at 96 h for the input compound. Input: Clc1ccc(Cc2nc3cc(Cl)c(Cl)cc3n2C[C@@H]2CCCN3CCCC[C@H]23)cc1Cl
Result block: 9

Query block: Item under review: c1ccc(-n2c(C[C@H]3CCCN4CCCC[C@H]34)nc3ccccc32)cc1 . Reported CC50 at 96 h?
Result block: 42

Query block: For FC(F)(F)c1ccc2c(c1)nc(CC1=CCCC1)n2C[C@@H]1CCCN2CCCC[C@H]12 , what is its reported CC50 at 96 h?
Result block: 5

Query block: Item under review: FC(F)(F)c1ccc2c(c1)nc(Cc1ccccc1)n2C[C@H]1CCCN2CCCC[C@H]12 . Reported CC50 at 96 h?
Result block: 100

Query block: Can you share its CC50 at 96 h? I mean this compound: Clc1cc2nc(Cc3ccc(Br)cc3)n(C[C@@H]3CCCN4CCCC[C@H]34)c2cc1Cl
Result block: 12

Query block: So what's the measured CC50 at 96 h for this one? c1ccc(-n2c(C[C@@H]3CCCN4CCCC[C@H]34)nc3ccccc32)cc1
Result block: 33

Query block: CC50 at 96 h for COc1ccc(Cc2nc3cc(C(F)(F)F)ccc3[nH]2)cc1 ?
Result block: 69
